TGT: Yer064c (UniProt P40041)
Sequence: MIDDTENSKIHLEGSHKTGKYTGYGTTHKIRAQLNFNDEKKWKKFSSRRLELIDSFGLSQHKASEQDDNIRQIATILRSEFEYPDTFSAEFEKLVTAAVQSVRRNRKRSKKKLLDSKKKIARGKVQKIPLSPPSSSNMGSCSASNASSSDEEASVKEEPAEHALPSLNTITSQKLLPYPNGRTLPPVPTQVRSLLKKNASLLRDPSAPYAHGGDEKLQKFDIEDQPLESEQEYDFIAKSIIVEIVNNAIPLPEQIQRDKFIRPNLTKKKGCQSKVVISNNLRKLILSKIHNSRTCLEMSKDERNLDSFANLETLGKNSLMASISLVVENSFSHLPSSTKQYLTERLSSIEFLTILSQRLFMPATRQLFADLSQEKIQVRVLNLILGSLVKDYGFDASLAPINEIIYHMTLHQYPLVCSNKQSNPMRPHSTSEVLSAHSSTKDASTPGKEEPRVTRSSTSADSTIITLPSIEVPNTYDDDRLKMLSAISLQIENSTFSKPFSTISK
PROTOCOL_DESCRIPTION: PBM E-score (8-mer binding enrichment) (E-score (-0.5 to 0.5)); higher = stronger / more preferred TF binding
ASSAY_CONTEXT: protein concentration: 200 nM; construct: GST-full length
The full ranking holds about 33,000 sequences; the median of “E-score (-0.5 to 0.5)” is about -0.036, and the highest 2% start at about 0.37. Many of the other results were omitted from the sample, so the highest values are more common in it than they were.
Task for the reader: assign each of the following sequences its reported PBM E-score.
Answer with the value's number alone.

(Q) Let me know recorded PBM E-score for GGATTCAA , thanks.
(A) 0.18

(Q) Let me know recorded PBM E-score for ATGAGGGG , thanks.
(A) -0.125

(Q) Let me know recorded PBM E-score for CTGCATCA , thanks.
(A) -0.0294

(Q) Let me know recorded PBM E-score for AGTTAGTC , thanks.
(A) 0.447

(Q) Let me know recorded PBM E-score for CGATTCCA , thanks.
(A) -0.102

(Q) Let me know recorded PBM E-score for AGATTCAA , thanks.
(A) 0.314

(Q) Let me know recorded PBM E-score for CCCAGAGG , thanks.
(A) -0.276

(Q) Let me know recorded PBM E-score for AGAAGACC , thanks.
(A) -0.209

(Q) Let me know recorded PBM E-score for AGACGACT , thanks.
(A) 0.397

(Q) Let me know recorded PBM E-score for ACTCAGCT , thanks.
(A) 0.216

(Q) Let me know recorded PBM E-score for AGTTAGTG , thanks.
(A) 0.0232

(Q) Let me know recorded PBM E-score for CCAGAACC , thanks.
(A) -0.1

(Q) Let me know recorded PBM E-score for CGTTAGTC , thanks.
(A) 0.45

(Q) Let me know recorded PBM E-score for ACAAGACT , thanks.
(A) 0.37

(Q) Let me know recorded PBM E-score for TACGCATA , thanks.
(A) -0.0887

(Q) Let me know recorded PBM E-score for AAATGATT , thanks.
(A) 0.437

(Q) Let me know recorded PBM E-score for CGTTAGAC , thanks.
(A) -0.00028

(Q) Let me know recorded PBM E-score for AAATGACG , thanks.
(A) 0.0769

(Q) Let me know recorded PBM E-score for ATTGACGA , thanks.
(A) 0.188

(Q) Let me know recorded PBM E-score for ATTGACTA , thanks.
(A) 0.428

(Q) Let me know recorded PBM E-score for CGTTAGTA , thanks.
(A) 0.0645

(Q) Let me know recorded PBM E-score for AGAAGACT , thanks.
(A) 0.368
